Tested on: Escherichia coli TOP10;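 note: peptides expressed intracellularly from a pBAD plasmid library in pooled LB shake-flask culture, induced with 0.3% L-arabinose, DNA abundance read by NGS, three biological replicates, DESeq2 with apeglm shrinkage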
Assay: shrunken log2 fold change of peptide-encoding DNA abundance (4.5 h post-induction vs induction); higher = less antimicrobial activity (less host growth inhibition)
Settings: time post-induction: 4.5 h; library: site-saturation at positions 5, 18, 19, 20
Parameter: shrunken log2 fold change. Scope: all listed entries.

Answered examples (2):
{"columns": ["sequenceInput", "shrunken log2 fold change"],
 "data": [
  ["RRIRERPPRLPRPRPRPNWSPRP", -0.3],
  ["RRIRKRPPRLPRPRPRPSNPPRP", -0.0952]
]}

Continue with the next sequence.
// lookup shrunken log2 fold change for "RRIRVRPPRLPRPRPRPQTMPRP"
-0.689

Source listed as the supplement of paper PMC9112550.
